The reported numbers originate from ChEMBL document CHEMBL1149866.

# Tested on: HeLa
# testSummary: Cytotoxicity against human HeLa cells by MTT method
# Type: functional, cell-based
pIC50: −log10 of the molar value.
Recorded pIC50 by entry

[
  {
    "compound": "CC(=O)O[C@@H]1C[C@@H](OC(C)=O)C(C)(C)/C=C/[C@H](C)[C@H](OC(C)=O)[C@@]2(O)C[C@H](C)[C@H](OC(=O)c3ccccc3)[C@@H]2/C=C/1CO",
    "comparisonSign": "<",
    "pIC50": 5.00
  },
  {
    "compound": "CC(=O)O[C@@H]1C[C@@H](OC(C)=O)C(C)(C)[C@H](O)[C@H]2O[C@@]3(C[C@H](C)[C@H](OC(=O)c4ccccc4)[C@@H]3/C=C/1C)[C@@H](OC(C)=O)[C@H]2C",
    "comparisonSign": "<",
    "pIC50": 5.00
  },
  {
    "compound": "CC(=O)O[C@@H]1C[C@@H](OC(C)=O)C(C)(C)/C=C/[C@H](C)[C@H](OC(C)=O)[C@@]2(O)C[C@H](C)[C@H](OC(=O)c3ccccc3)[C@@H]2/C=C/1C",
    "comparisonSign": "=",
    "pIC50": 5.51
  },
  {
    "compound": "CC(=O)O[C@@H]1[C@H](C)/C=C/C(C)(C)C(=O)C[C@@H](OC(=O)c2ccccc2)/C(C)=C/[C@H]2[C@@H](OC(=O)c3ccccc3)[C@H](C)C[C@]12OC(C)=O",
    "comparisonSign": "<",
    "pIC50": 5.00
  },
  {
    "compound": "CC1=C2C=C3CC[C@@H]4C(C)(C)[C@H](O)CC[C@@]4(C)[C@@H]3C[C@H]2OC1=O [HELIOSCOPINOLIDE A]",
    "comparisonSign": "=",
    "pIC50": 6.96
  }
]
